assay-details: Phase 1 single-dose crossover: bioavailability and food effect of Compound 1/Compound 2 bilayer tablets
Type: in vivo, human
run-parameters: human, in vivo, oral, Regimen A: single dose bilayer tablets 300 mg/120 mg, fasting; N = 23; geometric mean
measurement-kind: AUC(0-inf) (ng·h/mL)
// units = ng·h/mL; emit number, no label

Entry `COC(=O)N[C@H](C(=O)N1CCC[C@H]1c1nc2cc([C@H]3CC[C@H](c4cc5nc([C@@H]6CCCN6C(=O)[C@@H](NC(=O)OC)[C@@H](C)OC)[nH]c5cc4F)N3c3cc(F)c(N4CCC(c5ccc(F)cc5)CC4)c(F)c3)c(F)cc2[nH]1)[C@@H](C)OC` ; AUC(0-inf) = 960

Lab note: measured AUC(0-inf) of `CC(C)(C)[C@@H]1NC(=O)O[C@@H]2CCC[C@H]2OC/C=C/C(F)(F)c2nc3ccccc3nc2O[C@@H]2C[C@@H](C(=O)N[C@]3(C(=O)NS(=O)(=O)C4(C)CC4)C[C@H]3C(F)F)N(C2)C1=O` was 1150
